tgt: E. coli DHFR (Escherichia coli, UniProt P0ABQ4)
quantity-measured: Ki (nM)
The reply should contain only the number, in nM.

What does the data say about its Ki? Entry: CC1CCc2c(N)nc(N)nc2C1 (stereo not shown)
1100

* * *

Listed here are molecules together with their documented Growth in Primary Screens, first value of the duplicate.
System: E. coli strain MC1061
experimental-details: Duplicate screen of 1000 Maybridge compounds for growth inhibition
Format: cell-based, Escherichia coli
experimental-conditions: 10 μL of 1 mM compound in 200 μL/well, 36 hours at 37° C., OD 600 nm
The reply should contain only the number, in %.

// below: answered molecules
{"columns": ["molecule-smiles", "quantitative-result"],
 "data": [
  ["CSC(=N)NC(=S)Nc1cccc(Cl)c1", 6.0],
  ["O=C(Oc1c(Cl)cc(Cl)c2cccnc12)c1cccs1", 2.7],
  ["N#CC(C#N)=NNc1cc(C(F)(F)F)cc(C(F)(F)F)c1", 0.2],
  ["Clc1ccc(Cc2n[nH]cc2Sc2ccc(Cl)cc2)cc1", 2.3]
]}

Let us move to another entry and its Growth in Primary Screens, first value of the duplicate.
What does the data say about its Growth in Primary Screens, first value of the duplicate? Entry: `Nc1nc(-c2ccc(-n3cccc3)cc2)cc(C(F)(F)F)n1`
37
